test: viability loss of HPDE-C7K cells – cell-based, fluorescence, HTS, primary screen (AID 431); conditions: HPDE-C7K KRASV12 cells, Alamar Blue viability, 48 h; at 10 µM; hits give high values;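 further: 0% = DMSO solvent wells and 100% = doxorubicin-treated wells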
Out of some 63,000 compounds screened, about 1,100 (1.7%) were called active. What follows is part of a selection rich in actives, with near analogues and random picks from the rest. Results with a measured potency or affinity are listed apart.
PROPERTY LABEL: cytotoxicity (%)
Could you give me the number in %? Just the number is fine.

Query block: Which value of cytotoxicity has been reported for COc1cccc(NC(=O)Cn2nnc(-c3ccccc3N)n2)c1 in the records?
Result block: 6.3

Query block: Which value of cytotoxicity has been reported for COc1ccc(-c2csc(N3CCOCC3)n2)cc1OC in the records?
Result block: 2.9

Query block: Which value of cytotoxicity has been reported for O=C(Nc1ccccc1C(=O)O)c1ncn[nH]1 in the records?
Result block: -10

Query block: Which value of cytotoxicity has been reported for CC1CC(C)CN(C(=O)CCCn2c(=S)[nH]c3ccccc3c2=O)C1 (centres undefined) in the records?
Result block: -3.1
